# method-summary: in vivo
# Parameters: species or system rabbits
# particulars: rabbit, im, 50 mg/kg
property-label: concentration at 4 h (ng/mL)
Your answer should be a plain number; it is taken to be in ng/mL.

q: Quick one: concentration at 4 h of Cc1onc(-c2c(Cl)cccc2Cl)c1C(=O)N[C@@H]1C(=O)N2[C@@H]1SC(C)(C)[C@@H]2C(=O)O [Dicloxacillin, reference compound] ?
a: 7100

Consider the additional compound presented here.
q: Quick one: concentration at 4 h of CC(=O)OCC1=C(C(=O)O)N2C(=O)C(NC(=O)Cc3cc(-c4c(Cl)cccc4Cl)no3)C2SC1 (centres unmarked) ?
a: 2200

---

Listed here: compounds with reported MIC for Staphylococcus aureus L160a (penicillinase-producing).
Your answer should be a plain number; it is taken to be in µg/mL.

q: Quick one: MIC of Cc1cc(C)c(-c2cc(C(C)C(=O)NC3C(=O)N4C3SC(C)(C)C4C(=O)O)on2)c(C)c1 (stereo not shown) ?
a: 12.5

q: Follow-up entry: CC1(C)SC2C(NC(=O)Cc3cc(-c4ccc([N+](=O)[O-])cc4)no3)C(=O)N2C1C(=O)O (stereo not shown)
a: 3

q: Follow-up entry: CC1(C)SC2C(NC(=O)Cc3cc(-c4c(Cl)cccc4Cl)no3)C(=O)N2C1C(=O)O (stereo not shown)
a: 1

---

# method-summary: in vivo
# Design: species or system rabbits
# particulars: rabbit, im, 50 mg/kg
Each entry below lists one item and its recorded Cmax at 1 h value.
Your answer should be a plain number; it is taken to be in ng/mL.

q: Quick one: Cmax at 1 h of CC(=O)OCC1=C(C(=O)O)N2C(=O)C(NC(=O)Cc3cc(-c4c(Cl)cccc4Cl)no3)C2SC1 (centres unmarked) [Example III] ?
a: 5400

Consider the additional molecule presented here.
q: Quick one: Cmax at 1 h of Cc1onc(-c2c(Cl)cccc2Cl)c1C(=O)N[C@@H]1C(=O)N2[C@@H]1SC(C)(C)[C@@H]2C(=O)O [Dicloxacillin, reference compound] ?
a: 27000

---

# System: Staphylococcus aureus L160a (penicillinase-producing)
property-label: log10(MIC) (log10 of the value in µg/mL)
Transform log10 | Measure MIC | Unit µg/mL

q: Quick one: log10(MIC) of CC(=O)OCC1=C(C(=O)O)N2C(=O)C(NC(=O)Cc3cc(-c4c(C)cc(C)cc4C)no3)C2SC1 (stereo not shown) ?
a: -0.92

---
q: Quick one: log10(MIC) of CC(=O)OCC1=C(C(=O)[O-])N2C(=O)C(NC(=O)Cc3onc(C)c3Cl)[C@H]2SC1.[Na+] (stereo partly shown) ?
a: -0.30

q: Follow-up entry: CC1=C(C(=O)O)N2C(=O)C(NC(=O)Cc3onc(-c4c(Cl)cccc4Cl)c3C)C2SC1 (stereo not shown)
a: 0.48

q: Follow-up entry: CC1(C)SC2C(NC(=O)Cc3onc(-c4c(Cl)cccc4Cl)c3C#N)C(=O)N2C1C(=O)O (stereo not shown)
a: 1.10

q: Follow-up entry: CC(=O)OCC1=C(C(=O)O)N2C(=O)[C@@H](NC(=O)Cc3cccs3)[C@H]2SC1 [Cephalotin, reference compound]
a: 0.00

q: Follow-up entry: CC1(C)SC2C(NC(=O)Cc3cc(C45CC6CC(CC(C6)C4)C5)no3)C(=O)N2C1C(=O)O (stereo not shown)
a: 1.10
